tgt: Flt-4 (baculovirus expressed human Flt-4 kinase domain D725-R1298) (Homo sapiens, UniProt P35916)
Construct: human Flt-4 kinase domain D725-R1298; host or cells: baculovirus expression
Sequence (P35916 725-1298 isoform P35916-1): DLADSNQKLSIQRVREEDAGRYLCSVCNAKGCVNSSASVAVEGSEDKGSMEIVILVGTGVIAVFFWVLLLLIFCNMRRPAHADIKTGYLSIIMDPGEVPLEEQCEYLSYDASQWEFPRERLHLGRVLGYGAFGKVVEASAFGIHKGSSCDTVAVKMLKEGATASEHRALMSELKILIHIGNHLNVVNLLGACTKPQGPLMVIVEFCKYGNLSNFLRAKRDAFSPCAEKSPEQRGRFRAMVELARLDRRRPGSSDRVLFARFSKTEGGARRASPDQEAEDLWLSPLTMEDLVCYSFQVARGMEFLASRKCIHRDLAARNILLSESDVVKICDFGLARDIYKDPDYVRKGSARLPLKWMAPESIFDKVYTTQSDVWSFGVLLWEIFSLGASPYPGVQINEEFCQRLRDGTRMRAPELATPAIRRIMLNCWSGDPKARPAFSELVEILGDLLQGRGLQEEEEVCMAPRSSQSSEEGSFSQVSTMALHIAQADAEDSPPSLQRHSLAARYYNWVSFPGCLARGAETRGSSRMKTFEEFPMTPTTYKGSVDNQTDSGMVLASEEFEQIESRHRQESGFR
protocol: flt-4 Alphascreen Tyrosine Kinase assay;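 also: AlphaScreen chemiluminescence read-out of biotinylated poly(Glu,Tyr) 4:1 phosphorylation via streptavidin donor and PY100 anti-phosphotyrosine acceptor beads, ATP near KM, 1 hr kinase reaction, 10-point dose-response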
Type: biochemical
test.context: read-out: flt4 IC50
pIC50: −log10 of the molar value.
experimental.endpoint: pIC50

{"compound": "COc1cc2c(Oc3ccc(NC(=O)[C@]4(C(=O)Nc5ccc(F)cc5)C[C@H]4C)cc3F)ccnc2cc1OCCCN1CCOCC1", "pIC50": "> 7.30"}
{"compound": "COc1cc2nccc(Oc3ccc(NC(=O)CC(=O)Nc4ccc(F)cc4)cc3)c2cc1OC", "pIC50": "> 7.30"}
{"compound": "COc1cc2c(Oc3ccc(NC(=O)C(=O)N4CCC(Cc5ccccc5)CC4)cc3F)ccnc2cc1OCC1CCNCC1", "pIC50": "6.30 to 7.30"}

Go through the items and report each one's pIC50.
1. COc1cc2c(Oc3ccc(NC(=O)C4(C(=O)Nc5ccc(F)cc5)CC4)cc3F)ncnc2cc1OCC1CCN(C)CC1
2. COc1cc2nccc(Oc3cc(C)c(NC(=O)C4(C(=O)Nc5ccc(F)cc5)CC4)cc3F)c2cc1OC
3. COc1cc2c(Oc3ccc(NC(=O)C(=O)NC(C)C)cc3F)ccnc2cc1OCC1CCNCC1

Resp:
["> 7.30", "5.30 to 6.30", "5.30 to 6.30"]

Hi there! I need pIC50 for each item below, if you can.
1. COc1cc2c(Oc3ccc(NC(=O)C4(C(=O)Nc5ccc(F)cc5)CC4)cc3F)ccnc2cc1OCCCN1CCCCC1
2. COc1cc2c(Oc3ccc(NC(=O)C4(C(=O)Nc5ccc(F)cc5)CCC4)cc3F)ccnc2cc1OCCCN1CCCCC1

Resp:
> 7.30
> 7.30

Give pIC50 for each listed item.
1. COc1cc2c(Oc3ccc(NC(=O)C(=O)NC(C)c4ccc(F)cc4)cc3F)ccnc2cc1OCC1CCNCC1 (stereo not shown)
2. COc1cc2c(Oc3ccc(NC(=O)C4(C(=O)Nc5ccc(F)cc5)CC4)c(C)n3)ccnc2cc1OCCCN1CCOCC1
3. COc1cc2nccc(Oc3ccc(NC(=O)C4(C(=O)Nc5ccc(F)cc5)CC4)c(C)n3)c2cc1OC
4. COc1cc2nccc(Oc3ccc(NC(=O)C4(C(=O)Nc5ccc(F)cc5)CC4)cc3F)c2cc1OC
5. COc1cc2c(Oc3ccc(NC(=O)C4(C(=O)Nc5ccc(F)cc5)CC4)cc3)ccnc2cc1OCCCN1CCOCC1
6. COc1cc2nccc(Oc3cc(Cl)c(NC(=O)C4(C(=O)Nc5ccc(F)cc5)CC4)cc3F)c2cc1OC
7. COc1cc2nccc(Oc3c(F)cc(NC(=O)C4(C(=O)Nc5ccc(F)cc5)CC4)c(F)c3F)c2cc1OC
8. CCN(CC)CCCOc1cc2nccc(Oc3ccc(NC(=O)C4(C(=O)Nc5ccc(F)cc5)CC4)cc3F)c2cc1OC

Resp:
["6.30 to 7.30", "6.30 to 7.30", "6.30 to 7.30", "> 7.30", "> 7.30", "5.30 to 6.30", "6.30 to 7.30", "> 7.30"]

---

tgt: c-Kit kinase (Homo sapiens, UniProt P10721)
Sequence (P10721 26-976): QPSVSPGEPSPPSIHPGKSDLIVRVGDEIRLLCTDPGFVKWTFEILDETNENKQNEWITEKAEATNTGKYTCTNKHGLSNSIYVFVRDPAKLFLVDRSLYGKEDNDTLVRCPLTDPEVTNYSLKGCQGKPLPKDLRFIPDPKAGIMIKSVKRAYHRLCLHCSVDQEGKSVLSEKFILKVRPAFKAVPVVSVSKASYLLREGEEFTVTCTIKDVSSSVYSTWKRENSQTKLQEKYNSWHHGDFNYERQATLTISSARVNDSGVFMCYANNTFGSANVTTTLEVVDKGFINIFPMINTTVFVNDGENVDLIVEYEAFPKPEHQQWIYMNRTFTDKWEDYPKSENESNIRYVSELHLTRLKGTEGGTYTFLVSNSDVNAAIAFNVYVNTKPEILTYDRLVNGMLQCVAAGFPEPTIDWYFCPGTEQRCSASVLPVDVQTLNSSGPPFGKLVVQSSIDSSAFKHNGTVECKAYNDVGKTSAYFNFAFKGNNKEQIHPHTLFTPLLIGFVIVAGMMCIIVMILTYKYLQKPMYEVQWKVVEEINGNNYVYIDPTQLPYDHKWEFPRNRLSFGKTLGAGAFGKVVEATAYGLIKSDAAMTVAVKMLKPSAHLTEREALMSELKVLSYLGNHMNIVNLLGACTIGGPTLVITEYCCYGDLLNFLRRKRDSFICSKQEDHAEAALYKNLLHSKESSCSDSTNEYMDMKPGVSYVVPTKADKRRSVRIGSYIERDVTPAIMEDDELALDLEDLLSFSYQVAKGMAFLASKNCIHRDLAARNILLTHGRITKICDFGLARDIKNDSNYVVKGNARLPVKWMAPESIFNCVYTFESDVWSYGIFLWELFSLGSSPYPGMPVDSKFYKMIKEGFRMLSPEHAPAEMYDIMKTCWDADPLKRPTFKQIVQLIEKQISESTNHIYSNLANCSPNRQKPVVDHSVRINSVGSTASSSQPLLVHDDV
protocol: c-Kit AlphaScreen kinase assay;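 also: c-Kit kinase phosphorylating biotinylated poly(Glu,Tyr), ATP near its KM, 1 h reaction at ambient temperature, AlphaScreen chemiluminescence with streptavidin donor and anti-phosphotyrosine acceptor beads, 10-point inhibitor titration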
Type: biochemical
experimental.endpoint: IC50

Example compounds with recorded IC50:
{"compound": "CCN(C)C(=O)C(=O)Nc1ccc(Oc2ccnc3cc(OCC4CCNCC4)c(OC)cc23)c(F)c1", "tgt": "c-Kit kinase (Homo sapiens, UniProt P10721)", "reading": "500 to 5000 nM"}
{"compound": "COc1cc2nccc(Oc3cc(C)c(NC(=O)C4(C(=O)Nc5ccc(F)cc5)CC4)cc3F)c2cc1OC", "tgt": "c-Kit kinase (Homo sapiens, UniProt P10721)", "reading": "50 to 500 nM"}
{"compound": "COc1cc2c(Oc3ccc(NC(=O)C(=O)N4CCCC4)cc3F)ccnc2cc1OCC1CCNCC1", "tgt": "c-Kit kinase (Homo sapiens, UniProt P10721)", "reading": "50 to 500 nM"}

For each entry beneath this line, provide reported IC50.
1. COc1cc2nccc(Oc3nc(C)c(NC(=O)C4(C(=O)Nc5ccc(F)cc5)CC4)cc3Cl)c2cc1OC
2. COc1cc2nccc(Oc3cc(Cl)c(NC(=O)C4(C(=O)Nc5ccc(F)cc5)CC4)cc3F)c2cc1OC

Resp:
1: 500 to 5000 nM; 2: 50 to 500 nM

Hi! Can you tell me IC50 for each of these compounds?
1. COc1cc2c(Oc3ccc(NC(=O)C4(C(=O)Nc5ccc(F)cc5)CC4)cc3F)ncnc2cc1OCC1CCN(C)CC1
2. COc1cc2nccc(Oc3ccc(N4CC(Cc5ccccc5)N(S(=O)(=O)c5ccc(C)cc5)C4=O)cc3)c2cc1OC (stereo not shown)

Resp:
1: < 50 nM; 2: 50 to 500 nM
